- Experimental Target: Casein kinase I isoform delta (Homo sapiens) (UniProt P48730)
- Sequence (P48730 whole entry, looked up, canonical isoform): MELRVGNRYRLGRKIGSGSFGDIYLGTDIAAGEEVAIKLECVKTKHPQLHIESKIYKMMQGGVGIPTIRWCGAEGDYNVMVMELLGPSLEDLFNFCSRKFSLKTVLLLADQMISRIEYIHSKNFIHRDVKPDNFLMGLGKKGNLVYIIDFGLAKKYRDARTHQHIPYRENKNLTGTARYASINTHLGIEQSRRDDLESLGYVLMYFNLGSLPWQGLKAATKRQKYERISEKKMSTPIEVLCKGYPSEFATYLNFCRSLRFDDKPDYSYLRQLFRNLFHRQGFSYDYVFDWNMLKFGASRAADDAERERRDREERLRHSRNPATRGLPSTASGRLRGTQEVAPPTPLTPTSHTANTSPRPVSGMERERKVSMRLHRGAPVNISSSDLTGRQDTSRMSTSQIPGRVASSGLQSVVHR
- Measurement Context: at 1 µM
- Description: Millipore: Percentage of residual kinase activity of CSNK1D at 1uM relative to control. Control inhibitor: Jnk Inhibitor II at 100.0uM. Buffer: 8 mM MOPS pH 7.0, 0.2 mM EDTA
Kindly return 1 (yes) if reported residual activity is no lower than 80%; return 0 (no) if it is lower.

-- ask Test whether the compound NC(=O)c1cccc(-c2cc(Nc3ccc(OC(F)(F)F)cc3)ncn2)c1 records residual activity of 80% or higher.
-- reply 1 (yes)

-- ask # bool: residual activity of Oc1cccc(-c2nc(N3CCOCC3)c3oc4ncccc4c3n2)c1 >= 80%
-- reply 1 (yes)

-- ask Reported residual activity reaches at least 80% for NC(=O)c1ccc(-c2nc(-c3ccc4c(c3)OCCO4)c(-c3ccccn3)[nH]2)cc1 ?
-- reply 0 (no)

-- ask Could you please find out whether O=C1NC(=O)c2c1c1c3ccccc3[nH]c1n1cncc21 has residual activity that meets 80% or exceeds it?
-- reply 0 (no)

-- ask Hi, just wondering whether Nc1nc(Nc2ccc(S(N)(=O)=O)cc2)nn1C(=O)c1c(F)cccc1F shows residual activity of 80% or higher.
-- reply 1 (yes)

-- ask Kindly determine if residual activity recorded for O=c1cc(N2CCNCC2)oc2c(-c3ccccc3)cccc12 is above or exactly 80%.
-- reply 1 (yes)

-- ask Does Nc1ncnc2c1c(-c1ccc(Oc3ccccc3)cc1)cn2C1CCCC1 have a reported residual activity of at least 80%?
-- reply 0 (no)

-- ask Say whether CCOC(=O)c1c(C)[nH]c(/C=C2\C(=O)Nc3ccccc32)c1C shows residual activity of 80% or more.
-- reply 0 (no)

-- ask Entry O=C1Nc2ccccc2/C1=C\c1c(Cl)[nH]c2ccccc12 : is its residual activity no less than 80%?
-- reply 1 (yes)

-- ask Say whether O=c1cc(N2CCOCC2)oc2c1ccc1ccccc12 shows residual activity of 80% or more.
-- reply 1 (yes)

====

- Experimental Target: Serine/threonine-protein kinase SIK1 (Homo sapiens) (UniProt P57059)
- Sequence (P57059 whole entry): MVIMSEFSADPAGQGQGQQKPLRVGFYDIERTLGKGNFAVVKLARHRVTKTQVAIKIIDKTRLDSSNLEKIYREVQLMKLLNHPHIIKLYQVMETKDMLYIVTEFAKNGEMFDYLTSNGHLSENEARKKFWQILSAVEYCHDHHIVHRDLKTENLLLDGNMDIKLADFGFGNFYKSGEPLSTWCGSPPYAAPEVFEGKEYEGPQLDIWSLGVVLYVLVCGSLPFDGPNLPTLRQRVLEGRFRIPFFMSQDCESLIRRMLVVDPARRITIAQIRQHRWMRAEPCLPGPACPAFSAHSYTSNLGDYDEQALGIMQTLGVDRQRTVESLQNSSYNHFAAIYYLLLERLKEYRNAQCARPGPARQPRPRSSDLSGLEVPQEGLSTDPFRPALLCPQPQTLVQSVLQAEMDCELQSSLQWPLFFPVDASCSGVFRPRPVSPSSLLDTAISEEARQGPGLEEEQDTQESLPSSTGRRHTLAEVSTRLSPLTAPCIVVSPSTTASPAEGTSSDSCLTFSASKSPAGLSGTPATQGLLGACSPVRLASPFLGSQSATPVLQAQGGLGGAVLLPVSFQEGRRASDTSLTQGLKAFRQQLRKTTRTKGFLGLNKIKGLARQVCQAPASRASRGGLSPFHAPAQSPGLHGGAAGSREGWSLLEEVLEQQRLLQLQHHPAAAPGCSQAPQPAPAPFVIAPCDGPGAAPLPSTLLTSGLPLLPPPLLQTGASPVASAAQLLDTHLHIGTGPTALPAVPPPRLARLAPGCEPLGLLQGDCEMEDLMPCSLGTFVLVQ
- Measurement Context: at 10 µM
just bin them by residual activity: low-valued = under 20%, mid-valued = from 20% up to 60%, high-valued = 60% and over

-- ask Quick check: band for COc1ccc2c(c1)c(C1=C(c3c[nH]c4ccccc34)C(=O)NC1=O)cn2CCCN(C)C
-- reply mid-valued

-- ask Entry CCCC(=O)Oc1ccc2[nH]c(C(=O)c3cc4ccccc4[nH]3)cc2c1 belongs to which category?
-- reply mid-valued

-- ask # bin lookup: classify Cn1c2ccccc2c2c3c(c4c5ccccc5n(CCC#N)c4c21)CNC3=O by its residual activity
-- reply mid-valued

-- ask Class (by measured residual activity) for O=S(=O)(NCCNC/C=C/c1ccc(Br)cc1)c1cccc2cnccc12
-- reply mid-valued

-- ask Classify this compound: O=C1NC(=O)C(c2c[nH]c3ccccc23)=C1c1c[nH]c2ccccc12
-- reply low-valued

-- ask State the band of O=C1C(Cl)=C(N2C(=O)CCC2=O)C(=O)c2ccccc21
-- reply high-valued

-- ask For the record N#C/C(=C\c1ccc(O)c(O)c1)C(=O)NCc1ccccc1 , report the class its residual activity corresponds to.
-- reply low-valued

-- ask Please report the category associated with c1ccc(-c2cnc(Nc3ccc(OCCN4CCCC4)cc3)s2)cc1 , nothing else.
-- reply low-valued

-- ask Could you tell me which band O=C(Nc1nc2ccccc2n1CCN1CCOCC1)c1cccc([N+](=O)[O-])c1 belongs to?
-- reply high-valued

====

- Experimental Target: Tyrosine-protein kinase FRK (Homo sapiens) (UniProt P42685)
- Sequence (P42685 whole entry): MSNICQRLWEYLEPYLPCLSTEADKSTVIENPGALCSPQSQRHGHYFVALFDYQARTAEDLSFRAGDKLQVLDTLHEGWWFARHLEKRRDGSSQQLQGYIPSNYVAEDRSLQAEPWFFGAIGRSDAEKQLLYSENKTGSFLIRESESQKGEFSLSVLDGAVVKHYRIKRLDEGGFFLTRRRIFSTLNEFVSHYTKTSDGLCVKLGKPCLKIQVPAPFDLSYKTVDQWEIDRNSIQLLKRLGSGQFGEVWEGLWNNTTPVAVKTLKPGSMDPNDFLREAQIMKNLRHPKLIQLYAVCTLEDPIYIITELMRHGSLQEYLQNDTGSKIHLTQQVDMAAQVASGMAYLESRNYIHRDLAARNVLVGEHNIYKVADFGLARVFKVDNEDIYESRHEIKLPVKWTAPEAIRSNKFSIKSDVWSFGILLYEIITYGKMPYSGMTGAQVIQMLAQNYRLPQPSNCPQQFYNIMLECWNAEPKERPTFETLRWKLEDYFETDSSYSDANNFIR
- Measurement Context: at 10 µM
Endpoint: residual activity (%)
Response body: numeric value in %, unit text excluded.

Measured residual activity of O=C1NC(=O)C(c2c[nH]c3ccccc23)=C1c1c[nH]c2ccccc12 : 41

// recorded residual activity for O=C(c1ccccc1)c1ccc(N2CCOCC2)cc1O : 96

Recorded result, Fc1ccc(-c2nc3n(c2-c2ccncc2)CCS3)cc1 , residual activity: 51

Documented residual activity of CC(C)c1nn(-c2c(Cl)cccc2Cl)c2nc(Cc3ccc(OCCO)cc3)[nH]c(=O)c12 : 35

Recorded result, CC(C)[C@H](CO)Nc1nc(Nc2cc(N)cc(Cl)c2)c2ncn(C(C)C)c2n1 , residual activity: 11

Kindly note the recorded residual activity for O=c1cc(N2CCNCC2)oc2c(-c3ccccc3)cccc12 , which is 104

Form: compound = Nc1ncnc2[nH]nc(Nc3ccc(F)cc3)c12 ; residual activity = 38

Reported residual activity ( CC(C)(C)c1nc2c3ccc(F)cc3c3c(=O)[nH]ccc3c2[nH]1 ) = 60

The reported value for Cn1sc(=O)n(Cc2ccccc2)c1=O in terms of residual activity is 92

Form field residual activity, entry CCOc1nc(NC(=O)Cc2cc(OC)ccc2OC)cc(N)c1C#N : 74

// O=C1C(Cl)=C(N2C(=O)CCC2=O)C(=O)c2ccccc21 : residual activity value = 96

====

- Experimental Target: Mast/stem cell growth factor receptor Kit (Homo sapiens) (UniProt P10721)
- Sequence (P10721 whole entry): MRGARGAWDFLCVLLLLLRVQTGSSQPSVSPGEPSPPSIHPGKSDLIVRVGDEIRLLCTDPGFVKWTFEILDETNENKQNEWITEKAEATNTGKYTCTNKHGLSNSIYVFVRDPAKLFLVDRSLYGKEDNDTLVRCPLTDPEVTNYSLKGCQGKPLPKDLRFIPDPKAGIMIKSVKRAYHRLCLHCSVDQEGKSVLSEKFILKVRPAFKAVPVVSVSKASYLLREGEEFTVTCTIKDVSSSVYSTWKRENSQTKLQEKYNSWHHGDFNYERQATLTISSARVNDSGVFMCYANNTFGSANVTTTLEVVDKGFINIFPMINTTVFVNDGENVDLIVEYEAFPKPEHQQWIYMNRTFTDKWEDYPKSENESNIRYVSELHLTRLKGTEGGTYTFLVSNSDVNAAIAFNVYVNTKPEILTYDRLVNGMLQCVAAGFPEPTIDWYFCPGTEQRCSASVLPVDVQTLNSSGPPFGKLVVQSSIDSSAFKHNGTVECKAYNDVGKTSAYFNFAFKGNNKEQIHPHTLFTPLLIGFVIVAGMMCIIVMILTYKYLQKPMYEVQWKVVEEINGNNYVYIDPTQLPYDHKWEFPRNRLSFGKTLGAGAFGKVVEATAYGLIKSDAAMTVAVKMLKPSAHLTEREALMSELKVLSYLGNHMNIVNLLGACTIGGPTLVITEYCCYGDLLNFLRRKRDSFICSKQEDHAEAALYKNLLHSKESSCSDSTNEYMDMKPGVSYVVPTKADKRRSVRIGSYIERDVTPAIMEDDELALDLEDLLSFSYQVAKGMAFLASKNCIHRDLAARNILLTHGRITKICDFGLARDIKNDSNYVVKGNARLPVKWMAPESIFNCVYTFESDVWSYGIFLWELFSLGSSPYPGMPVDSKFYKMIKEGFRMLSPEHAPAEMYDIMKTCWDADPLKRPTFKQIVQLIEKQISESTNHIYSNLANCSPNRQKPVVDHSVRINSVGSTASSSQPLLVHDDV
- Measurement Context: at 10 µM
Consider the following compounds; for each one, report its residual activity.
I only need the number, in %, no unit after it.

Just so you know, measured residual activity for c1ccc(-c2cnc(Nc3ccc(OCCN4CCCC4)cc3)s2)cc1 came out at 1

For reference, reported residual activity for Cn1c2ccccc2c2c3c(c4c5ccccc5n(CCC#N)c4c21)CNC3=O stands at 82

Consider CC(C)(C)n1nc(Cc2cccc3ccccc23)c2c(N)ncnc21 . Its measured residual activity is 77

Notebook: O=C1NC(=O)c2c1c1c3ccccc3[nH]c1n1cncc21 , residual activity read as 10

Item: CC(C)c1nn(-c2c(Cl)cccc2Cl)c2nc(Cc3ccc(OCCO)cc3)[nH]c(=O)c12 | residual activity: 96

Input O=c1cc(N2CCOCC2)oc2c1ccc1ccccc12 . Output residual activity: 100

residual activity for CCOC(=O)c1c(C)[nH]c(/C=C2\C(=O)Nc3ccccc32)c1C is 53

For reference, reported residual activity for O=C(c1cc2cc(O)ccc2[nH]1)c1cc2cc(O)ccc2[nH]1 stands at 5

residual activity measured on O=c1cc(N2CCNCC2)oc2c(-c3ccccc3)cccc12 = 95

compound COc1cc2ncnc(Nc3cccc(Cl)c3)c2cc1OC , residual activity observed: 107

Reported residual activity of CC(C)[C@H](CO)Nc1nc(Nc2cc(N)cc(Cl)c2)c2ncn(C(C)C)c2n1 : 89

====

- Experimental Target: Protein-tyrosine kinase 6 (Homo sapiens) (UniProt Q13882)
- Sequence (Q13882 whole entry, looked up): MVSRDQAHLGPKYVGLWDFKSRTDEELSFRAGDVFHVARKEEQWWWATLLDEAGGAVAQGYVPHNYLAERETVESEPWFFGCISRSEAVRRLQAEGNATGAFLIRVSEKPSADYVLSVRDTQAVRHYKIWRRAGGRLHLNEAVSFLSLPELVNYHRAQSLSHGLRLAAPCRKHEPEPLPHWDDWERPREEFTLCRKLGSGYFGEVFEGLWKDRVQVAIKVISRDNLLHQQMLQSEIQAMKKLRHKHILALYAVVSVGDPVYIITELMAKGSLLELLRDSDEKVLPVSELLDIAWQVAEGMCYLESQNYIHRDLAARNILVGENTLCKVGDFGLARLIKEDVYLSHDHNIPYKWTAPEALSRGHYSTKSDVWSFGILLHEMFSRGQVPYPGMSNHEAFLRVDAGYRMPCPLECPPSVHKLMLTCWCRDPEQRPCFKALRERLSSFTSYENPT
- Measurement Context: at 10 µM
For each entry below, report its residual activity value.
Unit % implied. Number only.

Reported residual activity (Protein-tyrosine kinase 6 (Homo sapiens) (UniProt Q13882)) for entry O=c1cc(N2CCNCC2)oc2c(-c3ccccc3)cccc12 is 99

Recorded residual activity for CSc1nc(-c2ccc(F)cc2)c(-c2ccnc(NC(C)c3ccccc3)c2)[nH]1 (stereo unspecified) on Protein-tyrosine kinase 6 (Homo sapiens) (UniProt Q13882) was 89

# CC(C)(C)n1nc(Cc2cccc3ccccc23)c2c(N)ncnc21 with Protein-tyrosine kinase 6 (Homo sapiens) (UniProt Q13882): residual activity is -1

// returns residual activity for O=C(Nc1ccc(Cl)cc1)c1ccccc1NCc1ccncc1 with Protein-tyrosine kinase 6 (Homo sapiens) (UniProt Q13882); value = 1

Test item CN(C)S(=O)(=O)c1ccc2c(c1)/C(=C/c1cc3c([nH]1)CCCC3)C(=O)N2 ; Protein-tyrosine kinase 6 (Homo sapiens) (UniProt Q13882); reported residual activity was 94

Item: Nc1nc(Nc2ccc(S(N)(=O)=O)cc2)nn1C(=O)c1c(F)cccc1F | System: Protein-tyrosine kinase 6 (Homo sapiens) (UniProt Q13882) | residual activity: 74

Form field residual activity for item O=c1c(-c2ccc(F)cc2)c(-c2ccncc2)[nH]n1-c1ccc(Cl)cc1 on Protein-tyrosine kinase 6 (Homo sapiens) (UniProt Q13882): 7

Protein-tyrosine kinase 6 (Homo sapiens) (UniProt Q13882) assay, molecule O=c1cc(N2CCOCC2)oc2c1ccc1ccccc12 , recorded residual activity = 105

Readout residual activity for O=c1cc(N2CCOCC2)oc2c(-c3ccccc3)cccc12 , test system Protein-tyrosine kinase 6 (Homo sapiens) (UniProt Q13882), was 101

Record for NCCNc1ncc(C(N)=O)c(Nc2cccc(C(F)(F)F)c2)n1 under target or system Protein-tyrosine kinase 6 (Homo sapiens) (UniProt Q13882): residual activity reported as 14

Summary line: CCCCc1c(-c2ccc(OC)cc2)[nH]c2nccnc12 , Protein-tyrosine kinase 6 (Homo sapiens) (UniProt Q13882), reported residual activity = 46

====

- Experimental Target: Interleukin-1 receptor-associated kinase 4 (Homo sapiens)
- Measurement Context: at 1 µM
Endpoint: residual activity (%)
Write the value in % as a bare number.

Recorded residual activity (compound N#Cc1c(NC(=O)c2cccc3ccccc23)sc2c1CCCC2 ): 96

Please fill in: residual activity reported for O=C(c1ccccc1)c1ccc(N2CCOCC2)cc1O = 117

Noted for c1ccc(-c2cnc(Nc3ccc(OCCN4CCCC4)cc3)s2)cc1 : its residual activity reads 124

Measured residual activity, CCN(CC)CCNC(=O)c1c(C)[nH]c(/C=C2\C(=O)Nc3ccc(Cl)cc32)c1C : 22

Lookup result for O=C1Cc2c([nH]c3ccc(Br)cc23)-c2ccccc2N1 ; measured residual activity: 81

For this compound ( CC(C)[C@H](CO)Nc1nc(Nc2cc(N)cc(Cl)c2)c2ncn(C(C)C)c2n1 ), measured residual activity is 39
